Assay: Toxicity liver stage against HepG2, at 10uM
Format: cell-based
Set-up: test concentration 10 uM, cell line HepG2-A16-CD81EGFP
Settings: human, HepG2-A16-CD81EGFP cells; read-out: INHIBITION
MEASUREMENT LABEL: cytotoxicity at 10 µM (%)

[[record]]
compound = "CC(C)=CCN1C[C@@H]2CC[C@H]1CN(S(=O)(=O)c1cccnc1)C2"
unit_spec = "%"
result_value = 3.26

[[record]]
compound = "CN(C)C(=O)c1nc(CN2CC(c3ccccc3)CC2=O)no1 (stereo not drawn)"
unit_spec = "%"
result_value = 0.624

[[record]]
compound = "Cc1nc(NCCc2ccccc2)cc(C(=O)N2CCCCC2)n1"
unit_spec = "%"
result_value = -6.27


----------
Experiment: Toxicity liver stage against HepG2, at 10uM
Assay type: cell-based
Design: test concentration 10 uM, cell line HepG2-A16-CD81EGFP
Conditions: human, HepG2-A16-CD81EGFP cells; read-out: INHIBITION
MEASUREMENT LABEL: cytotoxicity at 10 µM (%)

[[record]]
molecule = "OC1(Cn2ccnc2)CCN(C[C@]2(O)CCCN3CCCC[C@@H]32)CC1"
result_value = 0.805

[[record]]
molecule = "Cc1cccc(CN2CCCC2c2cccc(CCC(=O)O)n2)c1 (centres undefined)"
result_value = -12.6

[[record]]
molecule = "COc1ccc(-n2nc(C(C)C)nc2Cn2cncn2)cc1"
result_value = 4.22

[[record]]
molecule = "CC(C)CNC(=O)c1cn(C(C)C)cc2c(=O)[nH]nc1-2"
result_value = 0.583

[[record]]
molecule = "CN1CCN(C)C(CNc2c(C#N)cnc3ccc(Cl)cc23)C1 (centres undefined)"
result_value = -4.58

[[record]]
molecule = "CC(c1ccccc1F)N(C(=O)CSCC(N)=O)C1CC1 (centres undefined)"
result_value = -54.9

[[record]]
molecule = "CCOc1ccc2c(c1)CN(Cc1nc3c(cnn3C)c(=O)[nH]1)CC2"
result_value = -0.373

[[record]]
molecule = "O=C(c1ccncc1F)N1C[C@@H]2CC[C@H]1CN(Cc1cccnc1)C2"
result_value = 3.01

[[record]]
molecule = "Cn1ccnc1CN(CCO)C(=O)C1CCN(C(=O)C2CC2)CC1"
result_value = 2.55

[[record]]
molecule = "CCN1CCN(S(=O)(=O)c2cn(C(C)C)cn2)c2ccccc21"
result_value = -4.3

[[record]]
molecule = "CN(C)C(=O)CN1CC[C@H]2[C@H]1CCN2c1ncccn1"
result_value = 8.28

[[record]]
molecule = "O=C(N1CCCC1)N1CCC(Nc2ccncn2)CC1"
result_value = -42.1

[[record]]
molecule = "Cn1c2c(ccc1=O)CCN(Cc1ccoc1)CC2"
result_value = -153

[[record]]
molecule = "OCCn1nccc1C1CCN(CCOc2ccccc2)CC1"
result_value = -0.121

[[record]]
molecule = "Cc1csc(CNc2cnn(C(C)C)c2)n1"
result_value = 9.45

[[record]]
molecule = "CN(C)CCN1CC(C(=O)N2CCC(c3cc(=O)[nH]cn3)CC2)CC1=O (centres undefined)"
result_value = -2.34

[[record]]
molecule = "O=C(NS(=O)(=O)c1ccc(F)c(F)c1)c1cscn1"
result_value = -5.64

[[record]]
molecule = "CCn1ccnc1CN1CCN(CC(O)c2ccc(OC)cc2)CC1 (centres undefined)"
result_value = -15.1

[[record]]
molecule = "COc1ccc(NC(=O)N(C)Cc2ccc(Br)o2)cn1"
result_value = 12

[[record]]
molecule = "CCN1CCN(C2CCN(C(C(N)=O)c3ccc(F)cc3)CC2)C1=O (centres undefined)"
result_value = -20

[[record]]
molecule = "CCc1sc(-c2nnc(CNCCn3cccn3)o2)cc1C"
result_value = 5.05

[[record]]
molecule = "CCN(CC)c1nc(O)cc(C(C)n2ncc3ccccc3c2=O)n1 (centres undefined)"
result_value = 2.47

[[record]]
molecule = "O=C(CCCn1cncn1)N1CCC2(CCCN(C3CCCC3)C2=O)C1 (centres undefined)"
result_value = -1.8

[[record]]
molecule = "Cc1nnc(NC(=O)N2CCCCC2CCO)s1 (centres undefined)"
result_value = -43.2


----------
Assay: Toxicity liver stage against HepG2, at 10uM
Assay type: cell-based
Set-up: test concentration 10 uM, cell line HepG2-A16-CD81EGFP
Settings: human, HepG2-A16-CD81EGFP cells; read-out: INHIBITION
MEASUREMENT LABEL: cytotoxicity at 10 µM (%)

[[record]]
compound = "CCN(CC)CC1CN(Cc2ccco2)Cc2nccn2C1 (stereo not drawn)"
measurement_label = "cytotoxicity at 10 µM"
result_value = -139

[[record]]
compound = "CCCc1nc(N2CCCCC2)c2c(n1)c(C)nn2CC"
measurement_label = "cytotoxicity at 10 µM"
result_value = 7.46

[[record]]
compound = "O=C(NC[C@]12COC[C@H]1CN(C1CCOCC1)C2)c1ccco1"
measurement_label = "cytotoxicity at 10 µM"
result_value = -3.99


----------
Test: Toxicity liver stage against HepG2, at 10uM
Type: cell-based
Parameters: test concentration 10 uM, cell line HepG2-A16-CD81EGFP
Conditions: human, HepG2-A16-CD81EGFP cells; read-out: INHIBITION
MEASUREMENT LABEL: cytotoxicity at 10 µM (%)

[[record]]
molecule = "Cc1ccsc1[C@@H]1CCN(C(=O)Cn2cc3ccccc3n2)C[C@H]1O"
unit_spec = "%"
result_value = -1.96

[[record]]
molecule = "COc1ccccc1C(C(=O)O)N1CCCN(C2CCCC2)CC1 (stereo not drawn)"
unit_spec = "%"
result_value = -9.12

[[record]]
molecule = "Clc1ccc(N2CCC(C3CCN(Cc4cccnc4)CC3)C2)nc1 (stereo not drawn)"
unit_spec = "%"
result_value = 13.5


----------
Reported cytotoxicity at 10 µM values follow for various compounds
Assay: Toxicity liver stage against HepG2, at 10uM
Type: cell-based
Design: test concentration 10 uM, cell line HepG2-A16-CD81EGFP
Conditions: human, HepG2-A16-CD81EGFP cells; read-out: INHIBITION
MEASUREMENT LABEL: cytotoxicity at 10 µM (%)

[[record]]
compound = "CC(C)(C)c1nnc(CN2CCN(CC(O)c3ccccc3)CC2)o1 (stereo not given)"
result_value = -12.8

[[record]]
compound = "Cc1ccc(C2CCCN(S(=O)(=O)N3CCOCC3)C2)nc1 (stereo not given)"
result_value = 4.25

[[record]]
compound = "Cc1ccc2cc(C(=O)N3CCC(O)(C(F)(F)F)CC3)ccc2n1"
result_value = -54.7

[[record]]
compound = "CCC1=NC2(CCC(C(=O)Nc3ccc(F)cc3)CC2)C(=O)N1C (stereo not given)"
result_value = 2.26

[[record]]
compound = "CN(C)C(=O)c1cn[nH]c1C1CCCN1Cc1c[nH]cn1 (stereo not given)"
result_value = -3.3

[[record]]
compound = "O=C(Nc1ccc(S(=O)(=O)Nc2ccccc2)cc1)N1CCCC1"
result_value = 10.9

[[record]]
compound = "NC(=O)C1CCCN1Cc1cccc(NC(=O)c2ccc(Cl)cc2F)c1 (stereo not given)"
result_value = 18.6

[[record]]
compound = "Cn1cccc1CN1CCc2ncnc(-c3cccnc3)c2CC1"
result_value = 9.03

[[record]]
compound = "Cc1cc(S(=O)(=O)N2CCc3ccc(F)cc32)cc(C(=O)O)c1C"
result_value = 3.2

[[record]]
compound = "CCc1noc(C(C)N2CCC(NS(=O)(=O)c3cccs3)CC2)n1 (stereo not given)"
result_value = 8.45

[[record]]
compound = "Cc1csc(Nc2nccnc2C2CCCN2C(=O)C(C)C)n1 (stereo not given)"
result_value = 1.3

[[record]]
compound = "Cc1cc(C(=O)N2CCC(Nc3cccnn3)CC2)no1"
result_value = -0.0225

[[record]]
compound = "CC(=O)N[C@@H]1CN(C(=O)c2ccc[nH]2)C[C@H]1c1ccc(C)o1"
result_value = 5.16

[[record]]
compound = "CC(Oc1ccccc1C(F)(F)F)C(=O)NCCC(=O)N(C)C (stereo not given)"
result_value = -4.25

[[record]]
compound = "Cc1cc(NC(=O)c2ccc(N3CCOCC3)cc2)[nH]n1"
result_value = -28.5

[[record]]
compound = "O=C(NCC1CC1)C1=NOC2(CCN(S(=O)(=O)c3cccs3)C2)C1 (stereo not given)"
result_value = 0.693

[[record]]
compound = "COC(=O)c1cc(CN2CCN(c3nc(C)cnc3C)CC2)ccc1O"
result_value = 0.171

[[record]]
compound = "OCCc1ncnn1Cc1cccc(Cl)c1"
result_value = 18.2

[[record]]
compound = "Cc1nn(C)c(N(C)C)c1CNCCS(C)(=O)=O"
result_value = -17.4

[[record]]
compound = "CCOC(=O)CCC(=O)N1CC(c2nc(Cc3ccccc3)no2)C1"
result_value = -2.42

[[record]]
compound = "Cc1ccc(CNCC2CNc3cc(C)nn3C2)cn1 (stereo not given)"
result_value = -7.07

[[record]]
compound = "Cc1cc(CN2C[C@@H]3COC[C@]3(CNC(=O)c3ccno3)C2)no1"
result_value = 1.18

[[record]]
compound = "CC(C)NC(=O)NCc1cc(-c2cccc(Cl)c2)nn1C"
result_value = 3.66

[[record]]
compound = "CC(NC(=O)NCCCN1CCc2ccccc2C1)c1nncn1C (stereo not given)"
result_value = -2.6

[[record]]
compound = "COc1ccc(CCNC2CCCN(c3ccc(C)nn3)C2)cc1 (stereo not given)"
result_value = -3.65

[[record]]
compound = "CCOCC(=O)Nc1ncn(Cc2cccc(Br)c2)n1"
result_value = -5.53

[[record]]
compound = "CN(Cc1cn2c(n1)CN(CC1CCOC1)CC2)Cc1ccco1 (stereo not given)"
result_value = -82.9

[[record]]
compound = "COCCN1CCCn2c(nc(CNC(=O)COC)cc2=O)C1"
result_value = -106

[[record]]
compound = "COc1cc(F)c(C(=O)N2C[C@@H](CN(C)CCO)[C@@H](CO)C2)c(F)c1"
result_value = -1.53

[[record]]
compound = "O=C1CCCN1Cc1nnc(SCc2ccc3c(c2)CCC3)o1"
result_value = 2.03

